- Test system: Renal Cancer (ACHN)
- RUN_DESCRIPTION: NCI tumor cell growth inhibition, renal cancer ACHN
- MEASUREMENT_CONDITIONS: Homo sapiens, 48 h, read-out: GI (concentration for 50% cell growth inhibition)
Measured IC50 accompanies every entry in the list below.
MEASUREMENT_KIND: IC50 (µM)

ITEM_SMILES: CN(O)C(=O)SC[C@H](NC(=O)CC[C@H](N)C(=O)O)C(=O)NCC(=O)O
MODIFIER_SIGN: >
DATA_VALUE: 1000
//
ITEM_SMILES: N[C@@H](CCC(=O)N[C@@H](CSC(=O)N(O)c1ccc(Br)cc1)C(=O)NCC(=O)O)C(=O)O
MODIFIER_SIGN: =
DATA_VALUE: 25
